system: MDA-MB-231; assay: NCI tumour cell line growth inhibition, 48 h
Active and inactive are the calls of the source. No stated cut-off is given here; in the data, active = GI50 up to about 1.1 µM and inactive = higher.
# reported GI50; entries follow
metric: GI50

>>> result("c1ccc2c3nnc(c2c1)SCCSCCSc1nnc(c2ccccc12)SCCSCCS3")
"> 100 µM (inactive)"
>>> result("N#Cc1ccc(C(O)C(F)(F)c2nc3ccccc3o2)cc1 (stereo not given)")
"18.9 µM (inactive)"
>>> result("c1cc2nsnc2c2c[nH]cc12")
"56.6 µM (inactive)"
>>> result("CC1(C)N=C(N)N=C(N)N1c1cccc(C(=O)Nc2ccc(S(=O)(=O)F)cc2)c1")
"> 100 µM (inactive)"
>>> result("O=c1c(-c2ccccc2)c(SCCN2CCCC2)n(-c2ccccc2)c(=S)n1-c1ccccc1")
"> 100 µM (inactive)"
